# Test system: SMMC-7721
# assay summary: Cytotoxicity in human SMMC7721 cells assessed as reduction in cell viability incubated for 48 hrs by MTT assay
# Format: functional, cell-based
# condition details: SMMC-7721, 48 h
Recorded measurements of pIC50, one per entry
Conceptually, pIC50 converts a concentration in mol/L into minus its log10.

Answered examples (2):
molecule | quantity | endpoint result
CC1=C(O)C(=O)C=C2C1=CC=C1[C@@]2(C)CC[C@@]2(C)[C@@H]3C[C@](C)(C(=O)NCCO)CC[C@]3(C)CC[C@]12C | pIC50 | 6.52
COC1=C(Br)C(=O)c2c([nH]c3c2C[C@]2(C)[C@H]4CC=C5[C@@H]6[C@@H](C)[C@H](C)CC[C@]6(C(=O)O)CC[C@@]5(C)[C@]4(C)CC[C@H]2C3(C)C)C1=O | pIC50 | 5.92

Shift focus to the following entry.
Input: Would you mind telling me what pIC50 value was observed for CC1=C(O)C(=O)C=C2C1=CC=C1[C@@]2(C)CC[C@@]2(C)[C@@H]3C[C@](C)(C(=O)NCC(C)O)CC[C@]3(C)CC[C@]12C (stereo partly drawn) ?
Output: 6.21

Provenance of the data: ChEMBL document CHEMBL4270495
